- System: KYSE-270 (Esophageal Squamous Cell Carcinoma);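 further: after 72 h of two-drug dosing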
- test_details: Bliss excess, mean over the matrix (fraction); higher = more synergy
endpoint_name: Bliss excess

Input: Look at this compound and give its reported Bliss excess. Cc1cc2ncnn2cc1Nc1ncc2c(n1)n(C1CCOCC1)c(=O)n2C [AZD7648] + COc1cc([C@@H]2c3cc4c(cc3[C@@H](O[C@@H]3O[C@@H]5CO[C@@H](C)O[C@H]5[C@H](O)[C@H]3O)[C@H]3COC(=O)[C@H]23)OCO4)cc(OC)c1O [Etoposide] (first compound max 10 µM, 7x7, partner max 10 µM)
Output: 0.0627

Input: Another compound to look at: CC1(C)CCC(CN2CCN(c3ccc(C(=O)NS(=O)(=O)c4ccc(NCC5CCOCC5)c([N+](=O)[O-])c4)c(Oc4cnc5[nH]ccc5c4)c3)CC2)=C(c2ccc(Cl)cc2)C1 [Venetoclax] + C[C@@H](Nc1cc(F)cc(F)c1)c1cc(C(=O)N(C)C)cc2c(=O)cc(N3CCOCC3)oc12 [AZD8186] (first compound max 1 µM, 7x7, partner max 3 µM)
Output: -0.0186
